Taken from PubChem BioAssay AID1159580.

Measured normalized growth by item
Assay: chemical genetic growth profiling, strain panel (AID 1159580);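 note: tested at 20 µM; growth read once vehicle control cultures reached saturation at 30 °C; 1 = growth at the plate median or of vehicle wells; lower values mean less growth of the strain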
Conditions: S. cerevisiae deletion strains, growth OD, locus YNL161W, strain CBK1, stronger effect = lower value
Hit rate of the full screen: of about 5,500 compounds, about 2,000 (36%) were called active. Roughly 18% stayed inconclusive and do not appear here. Some of the results follow.
The answer should be written as a number, with no unit following it.

Answered examples (2):
COC(=O)c1sccc1NS(=O)(=O)c1cc(Cl)cc(Cl)c1	0.954
O=C1c2cccc3c(Sc4ccccc4)ccc(c23)C(=O)N1NCCO	0.927

We next turn to a different compound, shown below.
For the compound "Clc1ccc(SCc2ccsc2-c2ncns2)cc1" , what normalized growth is on record?
0.972
